All figures here come from patent US10995101B2.

assay: Concentration in brain and cerebrospinal fluid compared to plasma; type: in vivo, mice; conditions: female, Balb-c, mouse, plasma, po, 10 mg/kg, Plasma Concentration (ng/mL), Mean, mean of 3 mice, PO 10 mg/kg, 0.500 h
endpoint_label: plasma concentration at 0.5 h (ng/mL)
Write it as a number; the unit ng/mL goes unstated.

**Query** Would you mind telling me what plasma concentration at 0.5 h value was observed for NC(=O)COc1cc(N2CCN(CCn3c(=O)sc4c3nc(N)n3nc(-c5ccco5)nc43)CC2)c(F)cc1F ?
**Result** 779

----------
assay: in vitro; conditions: human, Caco-2, pH 7.4
# efflux ratio at 120 min, 2 μM >= 200 gives Condition met, anything below gives Condition not met

**Query** Determine whether this compound has efflux ratio at 120 min, 2 μM no lower than 200: Nc1nc2c(sc(=O)n2CCN2CCN(c3cc(O[C@H]4CC[S@@+]([O-])CC4)c(F)cc3F)CC2)c2nc(-c3ccco3)nn12
**Result** Condition met

**Query** Hi team, for Nc1nc2c(sc(=O)n2CCN2CCN(c3ccc(OCCN4CCNCC4)cc3F)CC2)c2nc(-c3ccco3)nn12 , is the recorded efflux ratio at 120 min, 2 μM at or above 200?
**Result** Condition not met

**Query** For this compound, is measured efflux ratio at 120 min, 2 μM 200 or higher? Nc1nc2c(sc(=O)n2CCN2CCN(c3ccc(OC4CNC4)cc3)CC2)c2nc(-c3ccco3)nn12
**Result** Condition not met

**Query** Hi team, for C[S@+]([O-])CCNC(=O)c1ccc(N2CCN(CCn3c(=O)sc4c3nc(N)n3nc(-c5ccco5)nc43)CC2)c(F)c1 , is the recorded efflux ratio at 120 min, 2 μM at or above 200?
**Result** Condition not met

**Query** Confirm if efflux ratio at 120 min, 2 μM reported for the compound CNCCNC(=O)COc1cc(N2CCN(CCn3c(=O)sc4c3nc(N)n3nc(-c5ccco5)nc43)CC2)c(F)cc1F is 200 or above.
**Result** Condition not met

Others:
**Query** Please tell me: is the compound Nc1nc2c(sc(=O)n2CCN2CCN(c3ccc(OC4CCNC4)cc3F)CC2)c2nc(-c3ccco3)nn12 (stereo not drawn) at or over 200 in terms of efflux ratio at 120 min, 2 μM?
**Result** Condition not met

**Query** # check: efflux ratio at 120 min, 2 μM of C[S@+]([O-])CCNC(=O)c1cc(N2CCN(CCn3c(=O)sc4c3nc(N)n3nc(-c5ccco5)nc43)CC2)c(F)cc1F is greater than or equal to 200
**Result** Condition met

**Query** Tell me whether efflux ratio at 120 min, 2 μM is at least 200 here: Cc1cc(N2CCN(CCn3c(=O)sc4c3nc(N)n3nc(-c5ccco5)nc43)CC2)c(F)cn1
**Result** Condition not met

----------
target: A2A receptor (Homo sapiens, UniProt P29274); test: Human IL-2 T cell assay (restoration of IL-2 production in CGS-21680-treated CD3+ T cells); format: cell-based; parameters: endogenous in cells; host or cells: human CD3+ T cells isolated from venous blood of healthy volunteers
Sequence (P29274 whole entry): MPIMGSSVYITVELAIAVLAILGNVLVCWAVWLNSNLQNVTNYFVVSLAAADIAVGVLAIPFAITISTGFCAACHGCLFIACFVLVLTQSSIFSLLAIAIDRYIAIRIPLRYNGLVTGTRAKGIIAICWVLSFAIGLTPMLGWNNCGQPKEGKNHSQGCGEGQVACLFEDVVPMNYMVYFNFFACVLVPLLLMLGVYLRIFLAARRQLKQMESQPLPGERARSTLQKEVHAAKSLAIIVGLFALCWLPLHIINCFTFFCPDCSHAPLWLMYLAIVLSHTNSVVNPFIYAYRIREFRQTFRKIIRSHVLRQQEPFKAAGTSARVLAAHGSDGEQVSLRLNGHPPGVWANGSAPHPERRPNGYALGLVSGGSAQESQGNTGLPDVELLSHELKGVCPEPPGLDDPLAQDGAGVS
Each item that follows carries a reported IC50.
Report as a plain number; the unit nM is understood.

Solved cases below.
**Query** Fill in the blank: the reported IC50 of CNCCNC(=O)COc1ccc(N2CCN(CCn3c(=O)sc4c3nc(N)n3nc(-c5ccco5)nc43)CC2)c(F)c1 [Compound 50] is ____.
**Result** 4.3

**Query** Look up IC50: Nc1nc2c(sc(=O)n2CCN2CCN(c3ccc(OCC(=O)O)cc3F)CC2)c2nc(-c3ccco3)nn12 [Compound 35]
**Result** 3.9

**Query** What value of measured IC50 is listed for CC(C)(Oc1ccc(N2CCN(CCn3c(=O)sc4c3nc(N)n3nc(-c5ccco5)nc43)CC2)c(F)c1)C(=O)O [Compound 39] ?
**Result** 5.3

Next:
**Query** Would you kindly share the measured IC50 for CNCCNC(=O)c1ccc(N2CCN(CCn3c(=O)sc4c3nc(N)n3nc(-c5ccco5)nc43)CC2)c(F)c1 [Compound 31] ?
**Result** 8.3
